Literature compilation of Ki measurements on Adenosine receptor A2a (Homo sapiens).
Sequence (P29274 whole entry): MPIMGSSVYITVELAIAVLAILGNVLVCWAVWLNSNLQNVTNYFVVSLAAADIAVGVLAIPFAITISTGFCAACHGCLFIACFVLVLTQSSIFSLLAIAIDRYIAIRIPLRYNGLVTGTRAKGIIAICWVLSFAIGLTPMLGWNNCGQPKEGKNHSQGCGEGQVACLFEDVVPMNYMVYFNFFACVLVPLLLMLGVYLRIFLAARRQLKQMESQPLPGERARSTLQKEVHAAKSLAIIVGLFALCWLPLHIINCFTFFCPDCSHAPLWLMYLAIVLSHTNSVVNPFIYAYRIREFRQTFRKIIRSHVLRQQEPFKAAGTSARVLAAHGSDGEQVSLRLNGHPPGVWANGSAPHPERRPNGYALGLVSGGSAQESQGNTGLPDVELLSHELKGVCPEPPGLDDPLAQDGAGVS
observable: Ki (nM)

Answered cases to consult:
smi	endpoint.result
Cc1sc2nc(-c3sc(NC(=O)c4ccco4)nc3-c3ccccc3)nc(N)c2c1C	5950
CC(=O)Nc1cc(-c2cccc(C#N)c2)nc(-n2nc(C)cc2C)n1	2

1 = Nc1nc2c(cnn2CCc2ccc(OCCCCCC(=O)NO)cc2)c2nc(-c3ccco3)nn12
2 = Nc1nc(-c2ccco2)c2ncn(Cc3cccc([N+](=O)[O-])c3)c2n1
In: Could you determine which record has the numerically smaller Ki? Candidates: 1 and 2 Write down the label attached to your selection.
Out: 1
(1: 2 nM, 2: 85 nM)

====

Record set: Ki | UniProtKB P29274 | literature, multiple sources.
observable: Ki (nM)

Below: 10 molecules and their reported Ki.
smi	Ki, nM
Cc1ccc(S(=O)(=O)n2cc(CCOc3nc(N)c4ncn([C@@H]5O[C@H](CO)[C@@H](O)[C@H]5O)c4n3)c3ccccc32)cc1	2670
CC(=O)c1snc(Nc2cc(Cl)ccc2F)c1N	41000
Nc1nc(Cl)nc2c1ncn2[C@@H]1O[C@H](CO)[C@@H](O)[C@H]1O	120
Nc1nc(-c2ccc(F)cc2)c2ccccc2n1	80
CC(C)CCn1cc2c(nc(NC(=O)C(c3ccccc3)c3ccccc3)n3nc(-c4ccco4)nc23)n1	159
Nc1nc(-c2ccco2)nc2cn(Cc3ccccc3)nc12	320
CCn1nnc(-c2sc(NC(=O)c3ccco3)nc2-c2ccccc2)n1	94
Cn1cc2c(nc(NC(=O)Cc3ccsc3)n3nc(-c4ccco4)nc23)n1	31.3
Cc1ccc(-c2nc(N)nc3c2cnn3Cc2ccc(N)c(OCCCCCCC(=O)NO)c2)o1	74.3
CCc1nc(-c2cccs2)c2sccc2n1	69

I = O=c1c2c(nc3ccccn32)n(Cc2ccccc2)c(=O)n1Cc1ccccc1
II = O=c1c(O)c(-c2ccccc2)oc2cc(O)cc(O)c12
III = CCCn1c(=O)c2nc([C@H]3CC[C@H](COCc4ccccc4)CC3)[nH]c2n(CCC)c1=O
IV = CCCn1c(=O)c2[nH]c(-c3ccc(OCC(=O)c4c(NC(=O)O)n(C)c(=O)n(C)c4=O)cc3)cc2n(CCC)c1=O
V = C[C@H](NC(=O)c1nc(N)nc2c(F)cccc12)c1cccc2cccnc12
In: // ascending sort on recorded Ki Provide your answer as the labels ordered per the instruction.
Out: IV, V, III, II, I
(IV: 79.4 nM, V: 126 nM, III: 2720 nM, II: 16700 nM, I: 25800 nM)

====

Compiled Ki measurements on Adenosine receptor A2a (Homo sapiens) taken from the literature.

Examples from the recorded data:
smi	measurement.target	endpoint.result
CC(=O)c1cccc(/C=C/c2cc3c(c(=O)n(C)c(=O)n3C)n2C)c1	Adenosine receptor A2a (Homo sapiens)	> 10 µM
Nc1ncnc2c1ncn2[C@@]12C[C@H]1[C@H](CO)[C@@H](O)[C@H]2O	Adenosine receptor A2a (Homo sapiens)	> 100 µM
CC(C)Cn1c(=O)[nH]c2nc(-c3cnn(Cc4cc(-c5ccccc5)on4)c3)[nH]c2c1=O	Adenosine receptor A2a (Homo sapiens)	> 5 µM

In: Which Ki is reported with Adenosine receptor A2a (Homo sapiens) for this entry: Cn1cc2c(nc(NC34CC5CC(CC(C5)C3)C4)n3nc(-c4ccco4)nc23)n1 ?
Out: > 30 µM

In: Report Ki for COc1ccc(-c2cn3c(=O)n(-c4ccccc4)nc3c(=O)[nH]2)cc1 tested on Adenosine receptor A2a (Homo sapiens).
Out: > 30 µM

====

Literature survey of Ki (system: Adenosine receptor A2a (Homo sapiens)).
observable: Ki (nM)

molecule	units.of.measure	Ki
Cn1c(=O)c2c(nc3n2CCCN3CCc2c[nH]c3ccccc23)n(C)c1=O	nM	4560
Cn1c(=O)c2[nH]c(-c3ccc(OC(C)(C)C(=O)N4CCN(c5ccccc5)CC4)cc3)cc2n(C)c1=O	nM	174
O=c1c(-c2ccco2)nnc2n(-c3ccc(Cl)cc3)c3ccccc3n12	nM	50.6
Nc1nc(-c2ccc(NC(=O)CCN3CCCCC3)cc2)cn2c(=O)n(-c3ccccc3)nc12	nM	5.1
Nc1nc(-c2ccc(OCC(O)CN3CCCCC3)cc2)cn2c(=O)n(-c3ccccc3)nc12 (stereo not given)	nM	91.7
CCN(C(C)=O)c1ccc(OC)c2nc(NC(=O)N3CCC(O)(c4cccc(C(F)(F)F)c4)CC3)sc12	nM	210

1 = CCCCCC(C)Nc1nc2nn(C)cc2c2nc(-c3ccco3)nn12 (stereo not given)
2 = CCc1ccc2cc(CCn3ncc4c3nc(N)n3nc(-c5ccco5)nc43)ccc2n1
In: Hi, I'm comparing 1 with 2 and wondering which one has the bigger number for Ki. Any idea? Refer to your chosen entry by its label in the reply.
Out: 1

====

Record: compiled Ki on Adenosine receptor A2a (Homo sapiens) from multiple reports.
observable: Ki (nM)

smi	units.of.measure	Ki
CCNC(=O)[C@H]1O[C@@H](n2cnc3c(NNC(=O)c4ccc(Br)o4)ncnc32)[C@H](O)[C@@H]1O	nM	1200
CCSCCn1c(=O)c2c(nc(Cc3cccs3)n2C)n(Cc2ccco2)c1=O	nM	891
CN(C)c1nc2nn(C)cc2c2nc(-c3ccco3)nn12	nM	1030
Fc1ccc(CNc2nc(Oc3ccccc3)nc3nc(-c4ccco4)nn23)cc1	nM	905

====

pKi: −log10 of the molar value.
Here we gather pKi data for Adenosine receptor A2a (Homo sapiens, UniProt P29274) reported by several publications.

Example results:
molecule	measurement.target	pKi
CCCn1c(=O)c2[nH]c(-c3cc(OCC(=O)Nc4ccc(OC)c(OC)c4)nn3C)nc2n(CCC)c1=O	Adenosine receptor A2a (Homo sapiens, UniProt P29274)	< 6.00
Cc1cccc2cc(-c3ccc([N+](=O)[O-])cc3)c(=O)oc12	Adenosine receptor A2a (Homo sapiens, UniProt P29274)	< 4.00
CCC1CN2C(=O)N(Cc3ccccc3)c3nc(-c4cc(C)nn4C)[nH]c3C2=N1 (racemic)	Adenosine receptor A2a (Homo sapiens, UniProt P29274)	< 5.30
CCNC(=O)N1CCC(NC(=O)Nc2nc3nn(C)cc3c3nc(-c4ccco4)nn23)CC1	Adenosine receptor A2a (Homo sapiens, UniProt P29274)	< 5.30
COc1nc2nn(C)cc2c2nc(-c3ccco3)nn12	Adenosine receptor A2a (Homo sapiens, UniProt P29274)	< 4.52

In: So what does the record say about pKi for O=C(Nc1ccncc1)Nc1nc2nn(CCO)cc2c2nc(-c3ccco3)nn12 ?
Out: < 6.00

In: What pKi value was documented for this molecule, N#Cc1c(N)nc2c(c1-c1ccc3c(c1)OCO3)CCCC2 ?
Out: < 4.00

In: Reported pKi, molecule Cc1sc2nc(-c3sc(NC(=O)c4ccco4)nc3-c3ccccc3)[nH]c(=O)c2c1C : ____
Out: < 4.00

In: Quick check: pKi of COc1cc(-c2nc3c([nH]2)C2=NC(C)CN2C(=O)N3Cc2ccccc2)on1 (racemic) ?
Out: < 5.30

In: Suppose we examine the molecule COc1ccc(Nc2ncc(-c3ccncn3)c(-c3ccco3)n2)cn1 ; what pKi value has been reported?
Out: < 5.60

In: Entry CC(=O)Oc1cccc2cc(-c3cc(Br)cs3)c(=O)oc12 : reported pKi = ?
Out: < 4.00

In: Name the reported pKi value associated with the molecule CCCn1c(=O)c2nc(-c3cnn(Cc4noc(-c5ccc(C(F)(F)F)cc5)n4)c3)[nH]c2n(CCC)c1=O
Out: < 5.30

====

Below, pKi values reported for UniProt P29274 across several publications.
pKi: −log10 of the molar value.
observable: pKi

// solved cases for pKi follow
smi	pKi
Nc1nc(NCc2ccc(/C=C/C(=O)NO)cc2)nc2nc(-c3ccco3)nn12	7.57
Fc1ccc(CNc2nc(NC3CCCCC3)nc3nc(-c4ccco4)nn23)cc1	6.95

P = Cc1sc2nc(-c3sc(NC(=O)c4ccccc4)nc3-c3ccccc3)nc(N)c2c1C
Q = CCn1cc2c(nc(NC(=O)Cc3ccc4ccccc4c3)n3nc(-c4ccco4)nc23)n1
In: Which has the smaller recorded pKi, P or Q ? Output the label that corresponds to your choice.
Out: P

====

Below, Ki values reported for Adenosine receptor A2a (Homo sapiens) across several publications.
observable: Ki (µM)

smi	Ki [µM]
CC(=O)Nc1nc2ccccc2c2cn(-c3ccc(C)cc3)nc12	1.5
COc1c(C(=O)Nc2nccs2)ccc(NC(=O)CC(C)(C)C)c1F	0.012
CC#Cc1nc(NC(C2CC2)C2CC2)c2nc[nH]c2n1	3.24

a = Nc1c(C(=O)Nc2nccs2)sc2nc3c(cc12)C(=O)CCC3
b = CCc1nc2sc(C(=O)c3cccc(Cl)c3)c(N)c2cc1C
c = CCCOc1cc(NC(=O)CC)nc(SC)n1
d = Cc1nc2c(=O)n(Cc3ccccc3)nc(-c3cccs3)c2c2cc(-c3ccccc3)nn12
e = COc1cccc(CCCc2nc(N)c3nn(-c4ccccc4)cc3n2)c1
In: List items by Ki in falling order. Dear reader, please state the labels in the requested order.
Out: b, d, a, c, e
(b: 9.1 µM, d: 2.6 µM, a: 1 µM, c: 0.398 µM, e: 0.147 µM)

I = c1ccc(-c2nc(-c3ccccc3)c3[nH]c(-c4ccccc4)nc3n2)cc1
II = CNc1nc(-c2ccco2)c2sccc2n1
III = Nc1nc(-c2ccco2)c2cnn(Cc3cccc(C(=O)O)c3)c2n1
In: Ranking field: Ki; order: falling. As an answer, provide the labels arranged in the order called for.
Out: III, I, II
